experiment: Pharmacokinetic testing of salt forms, oral dosing in rats (Example 5); type: in vivo; details: rat, plasma, 18.2 mg/kg, fasted male Sprague-Dawley rats, mean values, dose mg/kg: Compound 1 18.2, Phosphate 14.3, Tartrate 18.7, Malate 18.6, Succinate 18.7, Benzenesulfonate 17.6, read-out: Tmax
measured-endpoint: Tmax (min)
A number alone suffices; assume min.

Find the measured Tmax of CN1CCN(Cc2ccc(Nc3ncc(Cl)c(Nc4ccccc4S(=O)(=O)N(C)C)n3)cc2)CC1 and report it.
50
